# Test system: Escherichia coli
# Test summary: Antibacterial activity against Escherichia coli MTCC 443 after 24 hr by broth microdilution method
# Type: functional
# Condition description: MTCC 443, 24 h
Would you kindly list log10 of MIC for each of these compounds?
Short version: log10 scale, MIC, µg/mL.

Answered cases to consult:
>  <Compound>
Cc1ccc2nc(Cl)c(-c3c(C#N)c(N)nc(Sc4ccc(Cl)cc4)c3C#N)cc2c1

>  <log10 of MIC>
1.80

$$$$
>  <Compound>
CCn1cc(C(=O)O)c(=O)c2cc(F)c(N3CCNCC3)cc21 [NORFLOXACIN]

>  <log10 of MIC>
1.00

$$$$

Please supply log10 of MIC for each of the following items, keeping them in order.
1. N#Cc1c(N)nc(Sc2ccc(Cl)cc2)c(C#N)c1-c1cc2cc(Cl)ccc2nc1Cl
2. Cc1ccc2nc(Cl)c(-c3c(C#N)c(N)nc(Sc4ccccc4)c3C#N)cc2c1
3. Cc1ccc(Sc2nc(N)c(C#N)c(-c3cc4cc(Cl)ccc4nc3Cl)c2C#N)cc1
4. COc1ccc2nc(Cl)c(-c3c(C#N)c(N)nc(Sc4ccc(C)cc4)c3C#N)cc2c1
5. N#Cc1c(N)nc(Sc2ccccc2)c(C#N)c1-c1cc2ccccc2nc1Cl
6. Cc1ccc(Sc2nc(N)c(C#N)c(-c3cc4ccccc4nc3Cl)c2C#N)cc1

Given back:
2.40
2.30
2.30
2.70
2.30
2.00

Asked: Value wanted: log10 of MIC (Escherichia coli) of entry `COc1ccc2nc(Cl)c(-c3c(C#N)c(N)nc(Sc4ccc(Cl)cc4)c3C#N)cc2c1`
Given back: 2.30
